test: chemical genetic growth profiling, strain panel (AID 1159580);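 note: tested at 20 µM; growth read once vehicle control cultures reached saturation at 30 °C; lower values mean less growth of the strain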; conditions: S. cerevisiae deletion strains, growth OD, locus YDL185W, strain tfp1
Screen size: about 5,500 compounds; about 2,000 (36%) were called active. Inconclusive results (about 18%) are left out. Cut-off read from the data, not from the text of the source: active = normalized growth mostly below about 0.91 (no sharp cut-off); inconclusive = no clear call, values can overlap the other calls; inactive = mostly above about 0.92. The list shows a part of the results. Where a SMILES comes first, the peptide text is derived from it.
Return exactly one item of active, inactive

Enquiry: I would be grateful if you could indicate the recorded call for "NCCCNCCSP(=O)(O)O" .
Return: inactive

Enquiry: Please give the result for CC(=O)N[C@@H](CC(=O)O)C(=O)N[C@@H](CCC(=O)O)C(=O)O (Ac-Asp-Glu-OH) too.
Return: inactive

Enquiry: Please give the result for CC1CCC(NC(=O)N(CCCl)N=O)CC1 (configuration not stated) too.
Return: inactive

Enquiry: Please give the result for "CC(=O)O[C@]1(C)CC[C@@]23CC1C(C)(C)[C@@H]2CC[C@H]3C" too.
Return: inactive

Enquiry: Please give the result for "NC1(C(=O)O)CCCC1" too.
Return: inactive

Enquiry: Please give the result for C[C@]12C=CC(=O)C=C1CCC1C2[C@@H](O)C[C@@]2(C)C1CC[C@]2(O)C(=O)CO (some centres not stated) too.
Return: inactive

Enquiry: Please give the result for COc1ccc2c(c1)OCC(Cc1ccc(OC)c(O)c1)C2=O (configuration not stated) too.
Return: inactive

Enquiry: Please give the result for O=C(O)C1CCCNC1 (configuration not stated) too.
Return: inactive

Enquiry: Please give the result for CCC(C)C(=O)c1c(O)c(C)c2oc3c(C)c(O)c(C(=O)C(C)CC)c(O)c3c2c1O (configuration not stated) too.
Return: active

Enquiry: Please give the result for COc1ccc2c(c1)OCC(Cc1ccc(OC)c(OC)c1)C2=O (configuration not stated) too.
Return: inactive

Enquiry: Please give the result for CC(=O)O[C@@H]1CC2C(C)(C)[C@H](O)CC[C@]2(C)C2CC[C@@]3(C)[C@H](c4ccoc4)OC(=O)[C@H]4O[C@]43[C@@]21C (some centres not stated) too.
Return: inactive

Enquiry: Please give the result for "OC[C@H]1O[C@@H](n2cnc3c(NCc4ccco4)ncnc32)[C@H](O)[C@@H]1O" too.
Return: inactive

Enquiry: Please give the result for O=C(O)CCC1NCC2CC1CN1CCCCC21 (configuration not stated) too.
Return: inactive

Enquiry: Please give the result for "O=NN(CCCl)C(=O)NCCCl" too.
Return: inactive

Enquiry: Please give the result for "CCCNC(=O)NS(=O)(=O)c1ccc(Cl)cc1" too.
Return: inactive

Enquiry: Please give the result for COc1cc2c(cc1OC)C1(O)C(=O)c3ccc(O)c(C(=O)O)c3OC1CO2 (configuration not stated) too.
Return: inactive

Enquiry: Please give the result for COC(=O)[C@@H]1OC(=O)C2OC23[C@@]1(C)CCC1[C@]2(C)C(C[C@@H](O)[C@]13C)C(C)(C)[C@H](OC(C)=O)C[C@@H]2OC(C)=O (some centres not stated) too.
Return: inactive

Enquiry: Please give the result for CC(=O)O[C@@H]1CC2C(C)(C)C(=O)C3OC3[C@]2(C)C2CC[C@@]3(C)[C@H](c4ccoc4)OC(=O)C4OC43[C@@]21C (some centres not stated) too.
Return: inactive

Enquiry: Please give the result for "COc1c(C)c2c(c(O)c1C/C=C(\C)CCC(=O)O)C(=O)OC2" too.
Return: active

Enquiry: Please give the result for CC(=O)OCC(=O)[C@@]1(O)CCC2C3CCC4=CC(=O)C=CC4(C)C3[C@@H](O)C[C@@]21C (some centres not stated) too.
Return: inactive

Enquiry: Please give the result for COC1=CC(=O)OC(CCc2ccc(OC)c(OC)c2)C1 (configuration not stated) too.
Return: inactive

Enquiry: Please give the result for "CC(=O)N[C@@H](CCC(=O)O)C(=O)O" too.
Return: inactive

###

test: chemical genetic growth profiling, strain panel (AID 1159580);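 note: tested at 20 µM; growth read once vehicle control cultures reached saturation at 30 °C; lower values mean less growth of the strain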; details: S. cerevisiae deletion strains, growth OD, locus YOR070C, strain gyp1
Screen size: about 5,500 compounds; about 2,000 (36%) were called active. Another 18% or so got no clear call; they are omitted. No stated cut-off is given here; in the data, active means normalized growth mostly below about 0.91 (no sharp cut-off); inconclusive means no clear call, values can overlap the other calls; inactive means mostly above about 0.92. Some of the results follow.
Return exactly one item of YES (active), NO (inactive)

Enquiry: I would be grateful if you could indicate the recorded call for "Oc1c(Cl)cc(Cl)c(Cl)c1Cc1c(O)c(Cl)cc(Cl)c1Cl" .
Return: YES

Enquiry: Please give the result for CC(C)/C(O)=C1/C(=O)O[C@@H](c2ccoc2)[C@]2(C)C(O)[C@@H](O)[C@@]34OC5(C)OC67CC(C)(C(O)[C@]6(O)[C@@H](O)[C@]3(O5)C12)[C@H](CC(=O)O)[C@]74C (stereo partly specified) too.
Return: NO

Enquiry: Please give the result for COc1ccnc(CS(=O)c2nc3ccc(OC(F)F)cc3[nH]2)c1OC (stereo unspecified) too.
Return: NO

Enquiry: Please give the result for COc1ccc2c(c1)OCC(Cc1ccc(OC)c(OC(C)=O)c1)C2=O (stereo unspecified) too.
Return: NO

Enquiry: Please give the result for "CC(O)(P(=O)(O)O)P(=O)(O)O" too.
Return: NO

Enquiry: Please give the result for "C[C@H]1C[C@@H](O)[C@]2(O)[C@@]13CC(=O)OC[C@@]2(C)[C@](C)(O)C(=O)C3" too.
Return: NO

Enquiry: Please give the result for NCC[C@@H](O)C(=O)N[C@@H]1C[C@H](N)[C@@H](O[C@H]2O[C@H](CN)[C@@H](O)[C@H](O)[C@H]2O)[C@H](O)[C@H]1O[C@H]1O[C@H](CO)[C@@H](O)[C@H](N)C1O (stereo partly specified) too.
Return: NO

Enquiry: Please give the result for "NC(N)=NCCN1CCCCCCC1" too.
Return: NO

Enquiry: Please give the result for Clc1ccc(COC(Cn2ccnc2)c2ccc(Cl)cc2Cl)c(Cl)c1 (stereo unspecified) too.
Return: YES

Enquiry: Please give the result for "O=NN(CCCl)C(=O)NCCCl" too.
Return: NO

Enquiry: Please give the result for "Cc1oncc1C(=O)Nc1ccc(C(F)(F)F)cc1" too.
Return: NO

Enquiry: Please give the result for "CCCNC(=O)NS(=O)(=O)c1ccc(Cl)cc1" too.
Return: NO

Enquiry: Please give the result for NC(=O)CS(=O)C(c1ccccc1)c1ccccc1 (stereo unspecified) too.
Return: NO

Enquiry: Please give the result for O=C(O)CCC1NCC2CC1CN1CCCCC21 (stereo unspecified) too.
Return: NO

Enquiry: Please give the result for Clc1ccc(CSC(Cn2ccnc2)c2ccc(Cl)cc2Cl)cc1 (stereo unspecified) too.
Return: YES

Enquiry: Please give the result for COc1ccc2c(c1)OCC(Cc1ccc(OC)c(O)c1)C2=O (stereo unspecified) too.
Return: NO

Enquiry: Please give the result for Clc1ccc(COC(Cn2ccnc2)c2ccc(Cl)cc2Cl)cc1 (stereo unspecified) too.
Return: YES

Enquiry: Please give the result for COc1ccc2nc(S(=O)Cc3ncc(C)c(OC)c3C)[nH]c2c1 (stereo unspecified) too.
Return: YES

Enquiry: Please give the result for "COc1ccc(-c2oc3cc(OC)c(OC)c(OC)c3c(=O)c2OC)cc1OC" too.
Return: NO

Enquiry: Please give the result for CCCCCCCCCCCCCC(=O)OC1C(C)C2(O)C(C=C(CO)CC3(O)C(=O)C(C)=CC32)C2C(C)(C)C12OC(C)=O (stereo unspecified) too.
Return: NO

Enquiry: Please give the result for CN(C)CCC(c1ccccc1)c1ccccn1 (stereo unspecified) too.
Return: NO

###

experiment: chemical genetic growth profiling, strain panel (AID 1159580);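 note: tested at 20 µM; growth read once vehicle control cultures reached saturation at 30 °C; lower values mean less growth of the strain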; conditions: S. cerevisiae deletion strains, growth OD, locus YDR054C, strain cdc34
Out of some 5,500 compounds screened, about 2,000 (36%) were called active. Another 18% or so got no clear call; they are omitted. No stated cut-off is given here; in the data, active means normalized growth mostly below about 0.91 (no sharp cut-off); inconclusive means no clear call, values can overlap the other calls; inactive means mostly above about 0.92. Some of the results follow.
Return exactly one item of active, inactive

Enquiry: I would be grateful if you could indicate the recorded call for CCOC(=O)c1sc(S(C)=NC(=O)Nc2ccc(Cl)cc2)c2c1CCC=C2 (stereo not given) .
Return: inactive

Enquiry: Please give the result for "CC1=CC(=O)N(c2ccc(OC(F)(F)F)cc2)C1=O" too.
Return: active

Enquiry: Please give the result for "Cc1noc(C)c1S(=O)(=O)Nc1csc(C(F)(F)F)c1-c1ccccc1" too.
Return: inactive

Enquiry: Please give the result for "Cc1ccc(S(=O)(=O)Nc2nc(-c3ccc(C)c(Cl)c3)c(C)s2)cc1" too.
Return: inactive

Enquiry: Please give the result for "Clc1ccccc1-c1csc(-c2ccncc2)n1" too.
Return: inactive

Enquiry: Please give the result for "CC1=CC(=O)N(c2ccc(F)c(Cl)c2)C1=O" too.
Return: inactive

Enquiry: Please give the result for "O=S(=O)(NCc1cc(Cl)cc(Cl)c1)c1cc(C(F)(F)F)cc(C(F)(F)F)c1" too.
Return: inactive

Enquiry: Please give the result for "FC(F)(F)c1cc(NC(=S)SCCSC(=S)Nc2cc(C(F)(F)F)cc(C(F)(F)F)c2)cc(C(F)(F)F)c1" too.
Return: inactive

Enquiry: Please give the result for "Clc1cccc(Nc2ncc(-c3ccc4c(c3)OCCCO4)s2)c1" too.
Return: inactive

Enquiry: Please give the result for "O=S(=O)(NCc1ccc(C(F)(F)F)cc1)c1cc(Br)c(Br)s1" too.
Return: inactive
